The origin of these recorded values is PubChem BioAssay (NCATS).

assay: Viability qHTS for spleen associated tyrosine kinase inhibitor (SYKi) naive MV4-11 cells (AID 1963823); conditions: MV4-11 AML viability, CellTiter-Glo luminescence, 72 h; series mostly up to 45 µM; note: nearly all actives have a fitted effect of over 40% in size
Inconclusive results are not listed. The source made the active and inactive calls. Calls come from the whole dose curve; as a rule, active = well fitted cell-killing curve with a large enough effect; inconclusive = small, poorly fitted or top-dose-only effect, or effect the other way; inactive = no such curve, though single readings can be large or run the other way.
Labels: active, inactive

MOLECULE: CCOC(=O)CCNc1cc(N2CCc3ccccc3CC2)nc(-c2ccccn2)n1
ASSIGNED CLASS: active

MOLECULE: C=C1CCC(OC(C)=O)C2(C)CC3(O)OC(=O)C(C)=C3CC12 (stereo not given)
ASSIGNED CLASS: inactive

MOLECULE: CC(C)(C(=O)c1cccnc1)c1cccnc1
ASSIGNED CLASS: inactive

MOLECULE: C[C@@H]1COCCN1c1cc(C2(S(C)(=O)=O)CC2)nc(-c2cccc3[nH]ccc23)n1
ASSIGNED CLASS: active

MOLECULE: C[C@@H]1O[C@@H](O[C@H]2[C@H](Oc3cc(O)c(C(=O)CCc4ccc(O)cc4)c(O)c3)O[C@H](CO)[C@@H](O)[C@@H]2O)[C@H](O)[C@H](O)[C@H]1O
ASSIGNED CLASS: inactive

MOLECULE: CCN(CC)CCN(Cc1ccc(-c2ccc(C(F)(F)F)cc2)cc1)C(=O)Cn1c(SCc2ccc(F)cc2)nc(=O)c2c1CCC2
ASSIGNED CLASS: active

MOLECULE: C#CCCCn1cc(-c2cccc3c2N[C@@H](C)CC(=O)N3)cn1
ASSIGNED CLASS: inactive

MOLECULE: CCC(O)C(C)C1CCC(C(C)C(=O)O)O1 (stereo not given)
ASSIGNED CLASS: inactive

MOLECULE: O=C(O)CC(=O)OC[C@H]1O[C@@H](Oc2ccc3c(c2)OC[C@H]2c4cc5c(cc4O[C@@H]32)OCO5)[C@H](O)[C@@H](O)[C@@H]1O
ASSIGNED CLASS: inactive

MOLECULE: C[C@H](CCC(=O)O)[C@H]1CC[C@H]2[C@@H]3[C@@H](O)C[C@@H]4C[C@H](O)CC[C@]4(C)[C@H]3CC[C@]12C
ASSIGNED CLASS: inactive

MOLECULE: COc1cc(O)cc2c1C(=O)OC(C)C2 (stereo not given)
ASSIGNED CLASS: inactive

MOLECULE: Cc1cc(-c2cc(O)ccc2Cl)cc2nnc(Nc3ccc(OCCN4CCCC4)cc3)nc12
ASSIGNED CLASS: active

MOLECULE: CONC(=O)c1ccccc1Nc1cc(Nc2cc(C)nn2C(C)C)ncc1Cl
ASSIGNED CLASS: active

MOLECULE: CCCCCC(N)=O
ASSIGNED CLASS: inactive

MOLECULE: C/C(=N\O)[C@@H](C)NCC(C)(C)CN[C@H](C)/C(C)=N/O
ASSIGNED CLASS: inactive

MOLECULE: COc1c(Nc2ncc(Cl)c(N[C@H]3[C@H](C(N)=O)[C@@H]4C=C[C@@H]3C4)n2)ccc2c1CCC(N1CCOCC1)CC2 (stereo not given in full)
ASSIGNED CLASS: active

MOLECULE: N#Cc1c(NC(=O)c2cccc3ccccc23)sc2c1CCCC2
ASSIGNED CLASS: active

MOLECULE: CC(=O)Nc1ccc(O)cc1
ASSIGNED CLASS: inactive

MOLECULE: CC#C[C@]1(O)CC[C@H]2[C@@H]3CCC4=CC(=O)CCC4=C3[C@@H](c3ccc(N(C)C)cc3)C[C@@]21C
ASSIGNED CLASS: active

MOLECULE: O=C(Nc1ccn[nH]1)c1c(F)cccc1F
ASSIGNED CLASS: inactive

* * *

assay: Quantitative highthroughput screen to assess conditional lethalithy of SEM cells grown in RPMI1640 with dialyzed fetal bovine serum (RPMI+ds) (AID 1963884); settings: SEM B-ALL cells, RPMI+dialyzed FBS, CellTiter-Glo viability, 48 h; series mostly up to 45.8 µM; note: nearly all actives have a fitted effect of over 35% in size;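 for viability: 100% = DMSO control wells and 0% = empty wells without cells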
Results filed as inconclusive are left out. Activity calls are given as the source filed them. Calls follow the shape of the dose curve; as a rule, active = well fitted cell-killing curve with a large enough effect; inconclusive = small, poorly fitted or top-dose-only effect, or effect the other way; inactive = no such curve, though single readings can be large or run the other way.
Classes used: class 1 (active), class 0 (inactive)

COMPOUND: Cc1nc(N)ncc1-c1nc(N2CCOCC2)c2sc(C(C)(C)O)cc2n1
ASSIGNED CLASS: class 1
--
COMPOUND: CC(C)[C@H](C(=O)Nc1ccc(C(=O)NO)cc1)c1ccccc1
ASSIGNED CLASS: class 1
--
COMPOUND: CCOC(=O)C1=C[C@@H](OC(CC)CC)[C@H](NC(C)=O)[C@@H](N)C1
ASSIGNED CLASS: class 0
--
COMPOUND: CC1=NN(c2ccccc2)C(=O)C1
ASSIGNED CLASS: class 0
--
COMPOUND: CC(C[N+](C)(C)C)OC(N)=O (stereo unspecified)
ASSIGNED CLASS: class 0
--
COMPOUND: COC(=O)[C@H](c1ccccc1Cl)N1CCc2sccc2C1
ASSIGNED CLASS: class 0

* * *

experiment: Quantitative highthroughput screen to assess conditional lethalithy of NOMO1 cells grown in Human Plasma-Like Medium with dialyzed fetal bovine serum (HPLM+ds) (AID 1963878); settings: NOMO1 AML cells in HPLM+ds, CellTiter-Glo viability, 48 h; series mostly up to 45.8 µM; note: nearly all actives have a fitted effect of over 35% in size;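 for viability: 100% = DMSO wells and 0% = empty wells on each plate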
Results filed as inconclusive are left out. The source made the active and inactive calls. Calls follow the shape of the dose curve; as a rule, active = well fitted cell-killing curve with a large enough effect; inconclusive = small, poorly fitted or top-dose-only effect, or effect the other way; inactive = no such curve, though single readings can be large or run the other way.
Outcomes: active, inactive

COMPOUND: Cc1c(OCC(F)(F)F)ccnc1CS(=O)c1nc2ccccc2[nH]1 (stereo unspecified)
ASSIGNED CLASS: inactive
--
COMPOUND: O=C(O)COCCN1CCN(C(c2ccccc2)c2ccc(Cl)cc2)CC1 (stereo unspecified)
ASSIGNED CLASS: inactive
--
COMPOUND: COc1cccc([C@@H](C)NCCCc2ccccc2Cl)c1
ASSIGNED CLASS: inactive
--
COMPOUND: NNC(=O)c1ccncc1
ASSIGNED CLASS: inactive
--
COMPOUND: CCS(=O)(=O)Nc1ccc2[nH]c(O)c(C(=Nc3ccc(CN4CCCCC4)cc3)c3ccccc3)c2c1
ASSIGNED CLASS: active
--
COMPOUND: CN1[C@H]2CC[C@H]1CC(OC(=O)c1c[nH]c3ccccc13)C2 (stereo partly specified)
ASSIGNED CLASS: inactive

* * *

assay: Viability qHTS for spleen associated tyrosine kinase inhibitor (SYKi) drug resistant MV4-11 cells (AID 1963824); details: SYKi-resistant MV4-11 viability, CellTiter-Glo, 72 h; series mostly up to 45 µM; note: nearly all actives have a fitted effect of over 35% in size
Results filed as inconclusive are left out. The source made the active and inactive calls. Calls follow the shape of the dose curve; as a rule, active = well fitted cell-killing curve with a large enough effect; inconclusive = small, poorly fitted or top-dose-only effect, or effect the other way; inactive = no such curve, though single readings can be large or run the other way.
Possible outcomes: active, inactive

COMPOUND: Cn1c(=O)c2[nH]c(Br)nc2n(C)c1=O
ASSIGNED CLASS: inactive
//
COMPOUND: O=C(Nc1nc2ccccc2n1CCc1ccccc1)c1ccccc1
ASSIGNED CLASS: inactive
//
COMPOUND: CC(C)(Oc1ccc(CCNC(=O)c2ccc(Cl)cc2)cc1)C(=O)O
ASSIGNED CLASS: inactive
//
COMPOUND: C=C1C(=O)OC2/C=C(/C)CC/C=C(/C)CCC12 (stereo unspecified)
ASSIGNED CLASS: active
//
COMPOUND: CC1(C)C=Cc2c(ccc3c2[N+]([O-])=C2C3(O)CC34NC(=O)C5(CCCN5C3=O)CC4C2(C)C)O1 (stereo unspecified)
ASSIGNED CLASS: inactive
//
COMPOUND: O=C(NCc1ccccn1)Nc1nnc(-c2ccco2)o1
ASSIGNED CLASS: inactive
//
COMPOUND: CCNC1(C(N)=O)CCN(c2ncnc3c2nc(-c2ccccc2Cl)n3-c2ccc(Cl)cc2)CC1
ASSIGNED CLASS: active
//
COMPOUND: COc1cc(O)c2c(c1)/C=C/C[C@H](O)[C@H](O)C(=O)/C=C\C[C@H](C)OC2=O
ASSIGNED CLASS: active
//
COMPOUND: CCCCCCCCCCCCc1ccc(S(=O)(=O)Nc2nncs2)cc1
ASSIGNED CLASS: inactive
//
COMPOUND: Cc1cc(Nc2cc(NC(=O)c3c(Cl)cccc3Cl)ccn2)nc(N)n1
ASSIGNED CLASS: active
//
COMPOUND: O=C(O)C1=CC(O)C(O)[C@H](O)C1 (stereo partly specified)
ASSIGNED CLASS: inactive

* * *

experiment: Quantitative highthroughput screen to assess conditional lethalithy of P12 Ichikawa cells grown in RPMI1640 with untreated serum (RPMI+s) (AID 1963881); settings: ATP luminescence, 48 h; viability; series mostly up to 45.8 µM; note: nearly all actives have a fitted effect of over 35% in size;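 for viability: 100% = DMSO wells and 0% = empty wells without cells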
Records with an inconclusive call do not appear. Activity calls are given as the source filed them. The call rests on the fitted dose curve; in most records, active means well fitted cell-killing curve with a large enough effect; inconclusive means small, poorly fitted or top-dose-only effect; inactive means flat fitted curve, though single readings scatter.
Outcome codes: true for active, false for inactive

SMILES TEXT: CC1(C)CCC(c2ccc(Cl)cc2)=C(CN2CCN(c3ccc(C(=O)NS(=O)(=O)c4ccc(N[C@H](CCN5CCOCC5)CSc5ccccc5)c(S(=O)(=O)C(F)(F)F)c4)cc3)CC2)C1
ASSIGNED CLASS: true
--
SMILES TEXT: Cc1cc(Nc2ncc(Cl)c(Nc3ccccc3S(=O)(=O)C(C)C)n2)c(OC(C)C)cc1C1CCNCC1
ASSIGNED CLASS: true
--
SMILES TEXT: CC[C@H](CC[C@@H](C)[C@H]1CC[C@H]2[C@@H]3CC=C4C[C@@H](O)CC[C@]4(C)[C@@H]3CC[C@]12C)C(C)C
ASSIGNED CLASS: false
--
SMILES TEXT: CN1C(=O)c2sccc2N(C)c2nc(Nc3ccc(S(N)(=O)=O)cc3)ncc21
ASSIGNED CLASS: true
--
SMILES TEXT: Cc1[nH]c(C=C2C(=O)Nc3ccccc32)c(C)c1CCC(=O)O
ASSIGNED CLASS: true
--
SMILES TEXT: CC1(C)O[C@H]2C[C@@H]3[C@H]4CCC5=CC(=O)C=C[C@]5(C)[C@@]4(F)[C@@H](O)C[C@]3(C)[C@]2(C(=O)CO)O1
ASSIGNED CLASS: true
--
SMILES TEXT: C[C@H](Cn1cnc2c(N)ncnc21)OCP(=O)(O)O
ASSIGNED CLASS: false
--
SMILES TEXT: C[C@@H](c1ncncc1F)[C@](O)(Cn1cncn1)c1ccc(F)cc1F
ASSIGNED CLASS: false
--
SMILES TEXT: O=C(Nc1cc2cc[nH]c2cn1)c1ccccc1
ASSIGNED CLASS: true
--
SMILES TEXT: CC1(C)[C@H](O[C@H]2O[C@H](C(=O)O)[C@@H](O)[C@H](O)[C@H]2O[C@@H]2O[C@H](C(=O)O)[C@@H](O)[C@H](O)[C@H]2O)CC[C@@]2(C)[C@H]1CC[C@]1(C)[C@H]2C(=O)C=C2[C@H]3C[C@@](C)(C(=O)O)CC[C@]3(C)CC[C@]21C
ASSIGNED CLASS: false
--
SMILES TEXT: CC(C)(O)CCc1ccc(OCc2cc(-c3cccc(OC(F)F)c3)c3ncccc3c2)cc1
ASSIGNED CLASS: false
--
SMILES TEXT: Nc1ccn([C@@H]2O[C@H](CO)[C@H](O)C2(F)F)c(=O)n1
ASSIGNED CLASS: true
--
SMILES TEXT: COC(=O)Nc1nc2ccc(C(=O)c3ccccc3)cc2[nH]1
ASSIGNED CLASS: true
--
SMILES TEXT: COc1cc(Nc2ncc(F)c(Nc3ccc4c(n3)NC(=O)C(C)(C)O4)n2)cc(OC)c1OC
ASSIGNED CLASS: true
--
SMILES TEXT: O=C1c2cccc(O)c2C(=O)c2c(O)cc(CO)cc21
ASSIGNED CLASS: false
--
SMILES TEXT: Cc1nc(NC(=O)N2CCC[C@@H]2C(N)=O)sc1-c1ccnc(C(C)(C)C(F)(F)F)c1
ASSIGNED CLASS: true
--
SMILES TEXT: Cc1cn([C@@H]2C[C@@H](O)[C@H](CO)O2)c(=O)[nH]c1=O
ASSIGNED CLASS: true
